System: NCI/ADR-RES ovarian
EXPERIMENT SUMMARY: NCI-60 one-dose screen, 48 h
EXPERIMENTAL PARAMETERS: 10 µM unless noted
This is part of a sample that, as a whole, favours compounds with a hit. Of some 83,000 tested, about 20% had one in any assay. Active and inactive are the calls of the source. Rule for the calls: active = growth percent below 10; inactive = the rest.
Outcome (select one): active, inactive

Here are 6 compounds together with their reported answers.
N/C(=N\N=C\c1cc2ccccc2s1)N/N=C/c1cc2ccccc2s1: inactive
CSc1nnc2c(=O)n(C)c(=O)n(C)c2n1: inactive
CC(=O)c1c[nH]c2ccc(-c3ccnc(Nc4ccc(NC(=O)C5CCCC5)c(CN5CCOCC5)c4)n3)cc12: active
CCN(CC)CCCC(C)Nc1cc(-c2cccc(OC(F)(F)F)c2)nc2ccc(N3CCCC3)cc12 (centres undefined): inactive
CCOC(=O)c1c(O)cc(-c2ccccc2)cc1-c1sc(N(C)Cc2ccccc2)nc1Cl: inactive
C=C(C)[C@@H]1CC[C@]2(C(=O)N3CCN(C)CC3)CC[C@]3(C)[C@H](CC[C@@H]4[C@@]5(C)CCC(=O)C(C)(C)[C@@H]5CC[C@]43C)[C@@H]12: inactive

Which outcome was assigned to CCCCCCCCN1C(=O)/C(=c2\sc3n(c2=O)C2C(NN=3)N(CC)C(=O)N2CC)c2ccccc21 (centres undefined) in this test?
inactive

Which outcome was assigned to `COc1cc(OC)c(/C=C/C(=O)c2ccc(Nc3ncnc4ccccc34)cc2)c(OC)c1` in this test?
active

Which outcome was assigned to `COc1ccc(-n2cc(-c3cc(OC)c(OC)c(OC)c3)n(C(C)=O)c2=O)cc1` in this test?
inactive

Attribution: PubChem BioAssay (NCI)
